// provenance: ChEMBL document CHEMBL3045406

Assay: Hydrophobicity, log K of the compound
Assay type: physicochemical
Conditions: octanol/water
Can you tell me log K for the items I'm about to list?

Form field log K, entry `CCCCCCCc1ccc(NC(=O)N[C@H](C)c2ccccc2)cc1` : 1.266

log K in this record for `C[C@@H](NC(=O)Nc1cc(F)cc(F)c1)c1ccccc1` : 0.452

// `CCOC(=O)c1ccccc1NC(=O)N[C@H](C)c1ccccc1` : log K value = 0.667

Query `C[C@H](NC(=O)Nc1ccc(Cl)cc1)c1ccccc1` yields log K of 0.439

log K reported for this molecule `CCCCCCc1ccc(NC(=O)N[C@H](C)c2ccccc2)cc1` : 1.081

// log K value for `Cc1ccc(NC(=O)N[C@@H](C)c2ccccc2)cc1` : 0.367

* * *

Tested on: Oryza sativa
Experiment: Relieving activity against bensulfuron-methyl induced injury to Oryza sativa (rice) assessed as growth rate at 1 uM (Rbv = 46 to 53%)
Type: functional
Would you kindly list Activity for each of these compounds?
Give the number; % is assumed, so skip it.

# Activity (compound: `Cc1ccccc1NC(=O)N[C@H](C)c1ccccc1` ) is 55

Recorded result, `CCOC(=O)c1cccc(NC(=O)N[C@@H](C)c2ccccc2)c1` , Activity: 85

The recorded Activity for `C[C@H](NC(=O)Nc1cccc(Cl)c1Cl)c1ccccc1` is 96

Activity reading for `C[C@H](NC(=O)Nc1cccc(F)c1)c1ccccc1` : 74

Query `Cc1ccc(NC(=O)N[C@H](C)c2ccccc2)cc1` yields Activity of 70

The recorded Activity for entry `CC(=O)c1ccc(NC(=O)N[C@@H](C)c2ccccc2)cc1` equals 81

Value of Activity reported for the compound `C[C@@H](NC(=O)Nc1ccccc1C(F)(F)F)c1ccccc1` is 54

`C[C@@H](NC(=O)Nc1cccc(Cl)c1)c1ccccc1` yielded Activity of 57

Record `C[C@@H](NC(=O)Nc1cccc(F)c1)c1ccccc1` . Reported Activity: 57

For reference, reported Activity for `C[C@H](NC(=O)Nc1cccc(Cl)c1)c1ccccc1` stands at 79

Activity in this record for `C[C@@H](NC(=O)Nc1cccc(F)c1F)c1ccccc1` : 66

The compound listed as `C[C@@H](NC(=O)Nc1ccccc1Cl)c1ccccc1` has a reported Activity of 63

* * *

Test system: Oryza sativa
Experiment: Effect on Oryza sativa (rice) assessed as growth rate at 1 uM relative to control
Assay type: organism-based
Details: in vivo
resultType: Activity (%)
State just the number; it will be interpreted in %.

The recorded Activity for `C[C@@H](NC(=O)Nc1cccc(C(F)(F)F)c1F)c1ccccc1` is 99

Entry `C[C@@H](NC(=O)Nc1cccc(Cl)c1Cl)c1ccccc1` — recorded Activity = 100

Activity reading for `CCOC(=O)c1ccc(NC(=O)N[C@H](C)c2ccccc2)cc1` : 100

get_value(item= `Cc1cc(F)ccc1NC(=O)N[C@@H](C)c1ccccc1` , readout=Activity) returns 98

Item: `C[C@@H](NC(=O)Nc1ccc(Cl)cc1Cl)c1ccccc1` | Activity: 99

Per the records, this compound ( `C[C@H](NC(=O)Nc1cccc(C(F)(F)F)c1F)c1ccccc1` ) has Activity equal to 98

Activity reading for `C[C@@H](NC(=O)Nc1cccc(I)c1)c1ccccc1` : 75

Data point: `CCCCCCCc1ccc(NC(=O)N[C@H](C)c2ccccc2)cc1` ; Activity = 100

Per the records, this compound ( `CCOC(=O)c1ccccc1NC(=O)N[C@@H](C)c1ccccc1` ) has Activity equal to 100

Sample `COc1cccc(NC(=O)N[C@@H](C)c2ccccc2)c1` ; Activity observed: 99

Item: `C[C@@H](NC(=O)Nc1cccc(C(F)(F)F)c1)c1ccccc1` | Activity: 72

Summary for this compound, `CC(C)c1cccc(NC(=O)N[C@H](C)c2ccccc2)c1` : Activity is 61

Documented Activity of `C[C@H](NC(=O)Nc1cccc(F)c1)c1ccccc1` : 94

Recorded Activity (compound `CCc1ccccc1NC(=O)N[C@H](C)c1ccccc1` ): 100

Field Activity (entry `C[C@@H](NC(=O)Nc1cccc(F)c1F)c1ccccc1` ) reads 99

The compound listed as `C[C@@H](NC(=O)Nc1ccccc1Cl)c1ccccc1` shows Activity equal to 103

// Activity value for `C[C@@H](NC(=O)Nc1cc(C(F)(F)F)cc(C(F)(F)F)c1)c1ccccc1` : 93

Looking up `CC(C)c1ccccc1NC(=O)N[C@@H](C)c1ccccc1` , I see its Activity listed as 96

The measured Activity associated with `C[C@H](NC(=O)Nc1cccc(I)c1)c1ccccc1` reads 95

Sure, the documented Activity for `C[C@H](NC(=O)Nc1cccc(Cl)c1)c1ccccc1` is 99

The compound identified as `C[C@@H](NC(=O)Nc1ccc(I)cc1)c1ccccc1` registered its Activity at 91

// Activity value for `C[C@@H](NC(=O)Nc1ccc(Cl)c(Cl)c1)c1ccccc1` : 96

Given item `Cc1ccc(NC(=O)N[C@H](C)c2ccccc2)cc1` , the value recorded as its Activity is 98

Short answer for `C[C@H](NC(=O)Nc1ccccc1Br)c1ccccc1` : Activity was 99

// Activity value for `COc1ccccc1NC(=O)N[C@@H](C)c1ccccc1` : 99
